# target or system: UniProtKB P41180
# Sequence (P41180 20-1078): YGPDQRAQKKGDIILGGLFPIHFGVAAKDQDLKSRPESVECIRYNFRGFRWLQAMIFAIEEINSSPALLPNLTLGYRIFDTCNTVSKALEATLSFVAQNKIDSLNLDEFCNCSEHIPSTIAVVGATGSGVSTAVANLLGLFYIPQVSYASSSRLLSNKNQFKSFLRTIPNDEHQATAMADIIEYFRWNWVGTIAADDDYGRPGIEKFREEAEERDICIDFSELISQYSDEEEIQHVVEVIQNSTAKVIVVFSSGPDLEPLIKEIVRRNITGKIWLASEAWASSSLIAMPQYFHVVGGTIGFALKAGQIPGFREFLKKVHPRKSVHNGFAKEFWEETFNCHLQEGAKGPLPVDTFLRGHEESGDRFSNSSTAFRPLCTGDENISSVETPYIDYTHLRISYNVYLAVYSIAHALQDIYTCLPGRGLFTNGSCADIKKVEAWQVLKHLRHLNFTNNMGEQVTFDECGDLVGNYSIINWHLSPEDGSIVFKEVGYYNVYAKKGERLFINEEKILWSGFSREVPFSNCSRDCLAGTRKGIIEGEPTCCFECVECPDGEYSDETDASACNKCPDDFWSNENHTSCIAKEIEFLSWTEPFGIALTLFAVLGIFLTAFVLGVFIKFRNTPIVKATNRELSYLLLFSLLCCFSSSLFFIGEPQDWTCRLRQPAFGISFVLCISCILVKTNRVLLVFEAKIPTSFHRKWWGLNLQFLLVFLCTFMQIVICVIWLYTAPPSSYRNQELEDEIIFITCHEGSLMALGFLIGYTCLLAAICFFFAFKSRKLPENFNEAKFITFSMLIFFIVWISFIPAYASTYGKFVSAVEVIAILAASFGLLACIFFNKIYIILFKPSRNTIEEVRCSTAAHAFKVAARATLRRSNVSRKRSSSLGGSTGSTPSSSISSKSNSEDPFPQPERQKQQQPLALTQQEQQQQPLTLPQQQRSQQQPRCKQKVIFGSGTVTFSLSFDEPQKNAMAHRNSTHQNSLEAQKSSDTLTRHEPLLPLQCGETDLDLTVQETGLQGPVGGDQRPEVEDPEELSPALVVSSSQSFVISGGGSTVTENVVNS
# measurement description: Cytosolic calcium (Cai) response of HEK 293 cells stably transfected with the human CaR
# condition info: no alteration in NaCl; read-out: EC50 for activation of the CaR
# Protocol: Measurement of Cai using cell population system: Coverslips with near-confluent HEK cells were loaded with fura-2/AM and placed diagonally into thermostated cuvettes equipped with a magnetic stirrer. The bath solution was stirred at 37° C., and CaR agonists were added to the desired final concentration. Excitation monochrometers was centered at 340 nm and 380 nm with emission light collected at 90° using a long-pass emission filter. […]
reported property: EC50

| compound | target or system | reported value |
| --- | --- | --- |
| [Ca+2] [Ca^2+o] | UniProtKB P41180 | ~3.5 mM |

Values were extracted from patent US6210964A.
